Entries and their measured IC50 follow.
target: PAR2 (HT-29 cells) (Homo sapiens, UniProt P55085); construct: host or cells: HT-29; assay: Ca FLIPR TETRA assay, ANTAGONIST mode, activator 8 μM SLIGKV; assay type: cell-based; conditions: HT-29 cells, activator 8 μM SLIGKV; maximal antagonist concentration per Method (A: 0.1, 1 or 2 μM; B: 50 μM)
Sequence (P55085 26-397): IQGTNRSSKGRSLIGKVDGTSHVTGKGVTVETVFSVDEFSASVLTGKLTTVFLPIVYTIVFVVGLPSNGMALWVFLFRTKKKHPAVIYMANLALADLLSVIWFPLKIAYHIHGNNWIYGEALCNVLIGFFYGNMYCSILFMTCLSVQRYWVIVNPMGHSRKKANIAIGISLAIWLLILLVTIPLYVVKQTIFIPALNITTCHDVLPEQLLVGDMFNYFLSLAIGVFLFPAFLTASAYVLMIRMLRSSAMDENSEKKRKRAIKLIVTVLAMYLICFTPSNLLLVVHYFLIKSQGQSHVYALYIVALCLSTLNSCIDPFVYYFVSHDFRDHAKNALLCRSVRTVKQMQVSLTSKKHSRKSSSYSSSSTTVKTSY
Express it in nM; write the number only.

Example entries begin here.
Compound	IC50, nM
CCCS(=O)(=O)N1CCN(C(=O)c2cc3nc(-c4ccc(F)cc4)cc(C4(C)CC4)c3o2)C(C)(C)C1 [Example I-107]	34
CC(C)(C)c1cc(-c2ccc(Cl)c(F)c2)nc2cc(C(=O)N3CCN(c4ccc(C(=O)O)cn4)CC3(C)C)oc12 [Example I-287]	0.3
CCC(C)c1cc(-c2ccc(F)cc2)nc2cc(C(=O)N3CCNC(=O)C3(C)C)oc12 (stereo not shown) [Example I-202]	5
CC(C)c1cc(-c2ccc(F)cc2)nc2cc(C(=O)N3CCN(C(=O)C4(O)CCOCC4)[C@@H](C)C3)oc12 [Example I-91]	3300
CC(C)c1cc(-c2ccc(F)cc2)nc2cc(C(=O)N3CCN(C(=O)C4CCCCO4)[C@@H](C)C3)oc12 (stereo partly shown) [Example I-88]	160

**Query** What value of IC50 has been reported for the following compound? CC(C)(C)c1cc(-c2ccc(Cl)cc2)nc2cc(C(=O)N3CCN(c4cn[nH]c4)CC3(C)C)oc12 [Example I-273]
**Result** 26

**Query** What value of IC50 has been reported for the following compound? Cc1cnc(N2CCN(C(=O)c3cc4nc(-c5ccc(Cl)cc5)cc(C(C)(C)C)c4o3)C(C)(C)C2)cn1 [Example I-264]
**Result** 15
